target: UniProtKB P25021; test: Agonist activity at human H2 receptor expressed in Sf9 cell membranes co-exprssing GsalphaS assessed as stimulation of [35S]GTPgammaS binding incubated for 90 mins by scintillation counting analysis; type: functional, Membrane
Sequence (P25021 whole entry): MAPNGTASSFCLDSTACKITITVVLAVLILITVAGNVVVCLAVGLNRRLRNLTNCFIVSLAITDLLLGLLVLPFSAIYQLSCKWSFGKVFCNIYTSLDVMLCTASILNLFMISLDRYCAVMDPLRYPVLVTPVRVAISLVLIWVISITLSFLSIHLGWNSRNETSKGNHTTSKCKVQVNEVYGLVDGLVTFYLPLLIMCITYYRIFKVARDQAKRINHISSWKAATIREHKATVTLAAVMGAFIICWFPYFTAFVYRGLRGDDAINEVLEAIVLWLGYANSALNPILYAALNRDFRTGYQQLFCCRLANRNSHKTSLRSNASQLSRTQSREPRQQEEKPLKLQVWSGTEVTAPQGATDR
pEC50: −log10 of the molar value.
Endpoint: pEC50

Solved entries:
Cc1nc(N)sc1CCCN/C(N)=N/C(=O)NCCCCCCCCCCNC(=O)CCCCCN1/C(=C/C=C/C=C/C2=[N+](CCCCS(=O)(=O)[O-])c3ccccc3C2(C)C)c2ccccc2C1(C)C 6.17
Cc1nc(N)sc1CCCN/C(N)=N/C(=O)NCCCCCCNC(=O)CCCCCN1/C(=C/C=C/C=C/C2=[N+](CCCCS(=O)(=O)[O-])c3ccccc3C2(C)C)c2ccccc2C1(C)C 6.25
Cc1nc(N)sc1CCCN/C(N)=N/C(=O)NCCCCCCCCNC(=O)CCCCCNC(=O)COc1ccc(/C=C/C2=[N+]3C(=Cc4ccc(-c5cccs5)n4[B-]3(F)F)C=C2)cc1 7.14
CC1(C)C(/C=C/C=C/C=C2\c3ccccc3C(C)(C)N2CCCCCC(=O)NCCCCCCCCNC(=O)/N=C(\N)NCCCc2c[nH]cn2)=[N+](CCCCS(=O)(=O)[O-])c2ccccc21 6.92
CC1(C)C(/C=C/C=C/C=C2\c3ccccc3C(C)(C)N2CCCCCC(=O)NCCCCCCCCNC(=O)/N=C(\N)NCCCc2nnc(N)s2)=[N+](CCCCS(=O)(=O)[O-])c2ccccc21 7.00

[1] Cc1nc(N)sc1CCCN/C(N)=N/C(=O)NCCCCCCNC(=O)CCCCCN1/C(=C/C=C/C=C/C2=[N+](C)c3ccccc3C2(C)C)c2ccccc2C1(C)C
[2] Cc1nc(N)sc1CCCN/C(N)=N/C(=O)NCCCCCCCCNC(=O)CCCCCN1/C(=C/C=C/C=C/C2=[N+](CCCCS(=O)(=O)[O-])c3ccccc3C2(C)C)c2ccccc2C1(C)C
Ask: Param pair: 1 , 2 . Output: the one whose pEC50 is numerically greater. Give the label under which the chosen entry appears.
Reply: 1

[1] Cc1nc(N)sc1CCCN/C(N)=N/C(=O)NCCCCCCCCNC(=O)CCCCCN1/C(=C/C=C/C=C/C2=[N+](CCCCS(=O)(=O)O)c3ccccc3C2(C)C)c2cc(S(=O)(=O)[O-])ccc2C1(C)C
[2] Cc1nc(N)sc1CCCN/C(N)=N/C(=O)NCCCCCCCCCCNC(=O)CCCCCN1/C(=C/C=C/C=C/C2=[N+](CCCCS(=O)(=O)O)c3ccccc3C2(C)C)c2cc(S(=O)(=O)[O-])ccc2C1(C)C
Ask: Given the two records 1 and 2 , choose the one whose pEC50 value is lower. Bench note: the answer is the label of the chosen record.
Reply: 2
